Biological target: T1, EsCas13d, nuclease-dead (Eubacterium siraeum, UniProt B0MS50, R295A;H300A;R849A;H854A)
T1 sequence: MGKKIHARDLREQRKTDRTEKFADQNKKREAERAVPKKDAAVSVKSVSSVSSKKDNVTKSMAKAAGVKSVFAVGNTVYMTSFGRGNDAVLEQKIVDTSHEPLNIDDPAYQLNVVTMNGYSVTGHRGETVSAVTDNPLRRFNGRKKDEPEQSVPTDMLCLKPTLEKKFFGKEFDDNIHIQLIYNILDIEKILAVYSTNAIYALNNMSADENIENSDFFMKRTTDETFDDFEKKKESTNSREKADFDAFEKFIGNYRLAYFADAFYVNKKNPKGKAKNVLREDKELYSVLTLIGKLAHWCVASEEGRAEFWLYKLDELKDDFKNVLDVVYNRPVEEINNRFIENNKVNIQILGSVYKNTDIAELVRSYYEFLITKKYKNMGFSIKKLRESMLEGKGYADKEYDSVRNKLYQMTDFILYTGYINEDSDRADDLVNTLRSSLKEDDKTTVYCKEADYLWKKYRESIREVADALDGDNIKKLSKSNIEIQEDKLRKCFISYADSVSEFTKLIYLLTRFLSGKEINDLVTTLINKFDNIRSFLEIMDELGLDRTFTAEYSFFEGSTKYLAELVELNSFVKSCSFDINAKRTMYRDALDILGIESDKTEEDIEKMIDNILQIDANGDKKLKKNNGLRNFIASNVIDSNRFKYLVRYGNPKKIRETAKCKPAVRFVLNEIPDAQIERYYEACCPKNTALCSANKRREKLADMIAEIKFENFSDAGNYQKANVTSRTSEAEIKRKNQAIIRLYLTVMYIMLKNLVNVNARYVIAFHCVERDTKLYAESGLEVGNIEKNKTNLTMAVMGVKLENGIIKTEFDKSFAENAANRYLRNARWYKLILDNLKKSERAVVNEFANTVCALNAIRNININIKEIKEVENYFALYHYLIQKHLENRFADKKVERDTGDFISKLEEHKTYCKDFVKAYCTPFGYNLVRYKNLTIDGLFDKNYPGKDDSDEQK
Test: crRNA (strand 1, pre-loaded); Mg2+; 40 mM Tris-HCl pH 7.5, 150 mM NaCl, 6 mM MgCl2, 1 mM DTT, 0.1% Tween-20, 0.2 mg/ml BSA; 25 C; 10 min per concentration, then washed
Details: tags: His6-TwinStrep-SUMO cleaved; N-terminal SNAP kept (SNAP-Surface 488); label: 3' end held by stalled T7 RNA polymerase
pKd: −log10 of the molar value.
Each record here notes measured pKd.
Readout Kind: pKd

Binder	Value Measured
target 1 C2A,A9G (mixed) RNA 1: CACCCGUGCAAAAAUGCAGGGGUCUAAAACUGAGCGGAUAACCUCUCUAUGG RNA 2: GGGAAUGGAUCCACAUCUACGAAUUCGUACCAUAGAGAGGUUGUCCGCUAACCGAGAUCGGAAGAGCACACGU	7.93
target 3 G4C,A5C (mixed) RNA 1: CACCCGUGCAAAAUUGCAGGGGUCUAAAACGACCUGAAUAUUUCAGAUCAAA RNA 2: GGGAAUGGAUCCACAUCUACGAAUUCGUUUUUGAUCUGAAAUAUUCCCGUCUGCAGAUCGGAAGAGCACACGU	6.89
target 1 insC 3' of 19,insG 3' of 2 (mixed) RNA 1: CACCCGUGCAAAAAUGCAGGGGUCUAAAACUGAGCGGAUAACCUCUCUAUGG RNA 2: GGGAAUGGAUCCACAUCUACGAAUUCGUACCAUCAGAGAGGUUAUCCGCUCGACCGAGAUCGGAAGAGCACACGU	7.48
target 1 C4A,G5C (mixed) RNA 1: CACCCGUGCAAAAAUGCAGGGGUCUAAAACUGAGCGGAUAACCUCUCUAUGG RNA 2: GGGAAUGGAUCCACAUCUACGAAUUCGUACCAUAGAGAGGUUAUCCCAUCACCGAGAUCGGAAGAGCACACGU	7.68
target 1 C2A,G17U (mixed) RNA 1: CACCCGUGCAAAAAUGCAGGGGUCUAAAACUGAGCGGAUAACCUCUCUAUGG RNA 2: GGGAAUGGAUCCACAUCUACGAAUUCGUACCAUAUAGAGGUUAUCCGCUAACCGAGAUCGGAAGAGCACACGU	7.52
target 1 MT 5'PFS CUC 3'PFS CGA (mixed) RNA 1: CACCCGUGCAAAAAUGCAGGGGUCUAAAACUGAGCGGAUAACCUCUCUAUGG RNA 2: GGGAAUGGAUCCACAUCUACGAAUUCCUCCCAUAGAGAGGUUAUCCGCUCACGAAGAUCGGAAGAGCACACGU	7.10
target 1 G12A (mixed) RNA 1: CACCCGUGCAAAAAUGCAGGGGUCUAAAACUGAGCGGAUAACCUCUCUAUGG RNA 2: GGGAAUGGAUCCACAUCUACGAAUUCGUACCAUAGAGAGAUUAUCCGCUCACCGAGAUCGGAAGAGCACACGU	8.26
target 1 MT 5'PFS UCA 3'PFS UUG (mixed) RNA 1: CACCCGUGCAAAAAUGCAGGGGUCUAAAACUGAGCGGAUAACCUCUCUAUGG RNA 2: GGGAAUGGAUCCACAUCUACGAAUUCUCACCAUAGAGAGGUUAUCCGCUCAUUGAGAUCGGAAGAGCACACGU	7.43
target 1 insG 3' of 18,insA 3' of 15 (mixed) RNA 1: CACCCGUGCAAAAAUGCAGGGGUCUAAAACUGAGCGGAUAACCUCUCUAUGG RNA 2: GGGAAUGGAUCCACAUCUACGAAUUCGUACCAUAGGAGAAGGUUAUCCGCUCACCGAGAUCGGAAGAGCACACGU	7.21
target 2 MT 5'PFS AUA 3'PFS AAA (mixed) RNA 1: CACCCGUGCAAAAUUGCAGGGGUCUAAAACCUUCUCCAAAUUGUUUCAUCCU RNA 2: GGGAAUGGAUCCACAUCUACGAAUUCAUAAGGAUGAAACAAUUUGGAGAAGAAAAGAUCGGAAGAGCACACGU	8.30
target 2 MT 5'PFS UUA 3'PFS GCC (mixed) RNA 1: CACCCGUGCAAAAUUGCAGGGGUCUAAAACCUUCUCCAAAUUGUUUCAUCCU RNA 2: GGGAAUGGAUCCACAUCUACGAAUUCUUAAGGAUGAAACAAUUUGGAGAAGGCCAGAUCGGAAGAGCACACGU	7.43
target 1 MT 5'PFS GUA 3'PFS CAG (mixed) RNA 1: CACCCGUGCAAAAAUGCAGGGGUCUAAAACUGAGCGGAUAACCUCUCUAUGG RNA 2: GGGAAUGGAUCCACAUCUACGAAUUCGUACCAUAGAGAGGUUAUCCGCUCACAGAGAUCGGAAGAGCACACGU	7.76
target 1 insA 3' of 11,insA 3' of 11 (mixed) RNA 1: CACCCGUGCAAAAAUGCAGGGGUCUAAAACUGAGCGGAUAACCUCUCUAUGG RNA 2: GGGAAUGGAUCCACAUCUACGAAUUCGUACCAUAGAGAGGUAAUAUCCGCUCACCGAGAUCGGAAGAGCACACGU	8.07
target 2 MT 5'PFS GAC 3'PFS AAA (mixed) RNA 1: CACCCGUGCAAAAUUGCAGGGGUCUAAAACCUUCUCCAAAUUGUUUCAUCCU RNA 2: GGGAAUGGAUCCACAUCUACGAAUUCGACAGGAUGAAACAAUUUGGAGAAGAAAAGAUCGGAAGAGCACACGU	8.02
